- assay: chemical genetic growth profiling, strain panel (AID 1159580);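 also: tested at 20 µM; growth read once vehicle control cultures reached saturation at 30 °C; 1 = growth at the plate median or of vehicle wells; lower values mean less growth of the strain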
- applied-conditions: S. cerevisiae deletion strains, growth OD, locus YNL175C, strain NOP13, hits give low values
Hit rate of the full screen: of about 5,500 compounds, about 2,000 (36%) were called active. Not shown: some 18% with an inconclusive outcome. This is one part of the list.
normalized growth for assorted compounds
Lab note: record the figure alone, no unit after it.

Recorded normalized growth, per entry:
compound: O=C(O)c1cc(=O)c2ccccc2[nH]1
normalized growth: 0.978

compound: Nc1ccc2c3c(cccc13)C(=O)NC2=O
normalized growth: 0.999

compound: OC[C@H]1O[C@@H](n2cnc3c(NC4CCCCC4)ncnc32)[C@H](O)[C@@H]1O
normalized growth: 1.01

Would you kindly look at the next entry?
Q: Look up normalized growth: NC1CONC1=O (centres undefined)
Ans: 1.02
